Source of measurements: the nanobody polyreactivity screen of Harvey et al. (2022)

Assay: yeast display, Sf9 membrane polyspecificity reagent, FACS + sequencing; frameworks hold sequencing errors
ASSAY_ENDPOINT: polyreactivity (PSR sort gate)

{"columns": ["SEQUENCE_RECORD", "RESULT"],
 "data": [
  ["QVQLVESGGGLLQAGGRLRLSCAASGSIFAAYTMGWYRQAPWKERELVAAISVSTVSTYYADSVKGRFTISRDNAKITVYLQMNSLKPEDTAVYYCNADPTDSYPQKYEHDSWGQGTQVTVSS", "low polyreactivity"],
  ["QVQLVESGGGLVQAGGSLRLSCAASGRIFFYYAMGWYRQAPGKERELVAAISSGGGSTYYADSVKGRFTISRDNAKNTVYLQMNSLKPEDTAVYYCAARTYRRRYLGWSQYVGPYDYWGQVTQVTVSS", "high polyreactivity"],
  ["QVQLVESGGGLVQAGGSLRLSCAASGSIFKWYAMGWYRQAPGKERELVAVISSGGNTYYADSVKGRFTISRDNAKNTVYLQMNSLKPEDTAVYYCAARVTSHMYYWGQGTQVTVSS", "high polyreactivity"],
  ["QVQLVESGGGLVQAGGSLPLSCAASGRIFWDYDMGRYRQAHGKERELVAVITFSGDSTYYADSVKGRFTISRDNAKNTVYLQMNSLKPEDTAVYYCASARAIRQFWYVATFEYWGQGTQVTVSS", "low polyreactivity"],
  ["QVQLVESGGGLVQAGGSLRLSCAASGSTFSYYAMGWYRQAPGKERELVAAISSRGGSTYYADSVKGRFTISRDNAKNTVYLQMNSQKPEDTAVYYCNADHQFRSSVSGDHDYWGQGTQVTVSS", "high polyreactivity"]
]}

----------
Assay: yeast display, Sf9 membrane polyspecificity reagent, FACS + sequencing; frameworks hold sequencing errors

{"columns": ["SEQUENCE_RECORD", "polyreactivity (PSR sort gate)"],
 "data": [
  ["QVQLVESGGGLVQAGGSLRLSCAASGFTFPTYAMGWYRQAPGKERELVAAISTSGARTYYADSVKGRFTISRDNAKNTVYLQMNSLKPEDTAVYYCAVGSIYTIGFRKGYRFDYWGQGTQVTVSS", "high polyreactivity"],
  ["QVQLVESGGGLVQAGGSLRLSCAASGRIFYYNAMGWYRQAPGKEREFVAAISSGGGSTYYADSVKGRFTISRDNAKNTVYLQMNSLKPEDTAVYYCAADGYYYDYYYYWGDYGYWGQGTQVTVSS", "high polyreactivity"],
  ["QVQLVESGGGLVQAGGSLRLICAASGSIFITYDMGWYRQAPGKERELVATISTTGGTTYYADSVKGRFTISRDNAKNTVYLQMNSLKPEDTAVYYCATAGPPRGYYAPITLDDYWGQGTQVTVSS", "low polyreactivity"],
  ["QVQLVESGGGLVQAGGSLRLSCAASGRTFRYYAMGWYRQAPGKERELVATISSGGSTNYADSVKGRFTISRDNAKNTVYLQMNSLKPEDTAVYYCARYSYRGTNVRYDYWGQGTQVTVSS", "high polyreactivity"],
  ["QVQLVESGGGLVQAGGSLRLSCAASGSIFLRYAMGWYRQAPGKERELVAAITSSGGSTYYADSVKGRFTISRDNAKNTLYLQMNSLKPEDTAVYYCNRYSYLFPYYWKYDYWGQGTQVTVSS", "high polyreactivity"],
  ["QVQLVESGGGLVQAGGSLRLSCAASGRIFDSNALGWYRQAPGKERELVAAISYDGGSTYYADSVKGRFTISRDNAKNTVYLQMNSLKPEDTAVYYCAADDGWYYYYGYDYWGQGTQVTVSS", "low polyreactivity"],
  ["QVHLQESGGGLVQAGGSLRLSCAASGTIFRFRYMGWHRQAPGKERELVAGINGGTTTYYADSVIGRFTISRDNAKNTVYLQMNSLKPDDTAVYNCAAGASRLTYYDFWGQGTQVTVSS", "low polyreactivity"],
  ["QVQLVESGGGLVQAGGSLRLSCAASGRIFYAYAMGWYRQAPGKERVFVAAISKRGGSTYYADSVKGRFTISRDNAKNTVYLQMNSRKPEDTAVYYCAADHEAIVRYDYWGQGTQVTVSS", "low polyreactivity"],
  ["QVQLVESGGGLVQAGGSLRLICAASGRIFGFNAMGWYRQAPGKERELVAAISGRSGRTYYADSVKGRFTISRDNAKITVYLQMNSLKPEDTAVYYCNTVGYRGPSWYDYWGQGTQVTVSS", "high polyreactivity"],
  ["QVQLVESGGGLVQAGGSLRLSCAASGRIFFTNAMGWYRQAPGKERELVATISSSDGSTYYADSVKGRFTISRDNAKNTVYLQMNSLNPEDTAVYYCAALYSFRGSRQYTYKYYYWGQGTQVTVSS", "high polyreactivity"],
  ["QVQLVESGGGLVQAGGSLRLSCAASGSTFQQYGMGWYRQAPGKERELVAAITFSDGNTYYADSVKGRFTISRDNAKNTVYLQMNSLKREDTAVYYCNAGYSYGVSYAEGGYWGQGTQVTVSS", "low polyreactivity"]
]}

----------
Experiment: yeast display, Sf9 membrane polyspecificity reagent, FACS + sequencing; frameworks hold sequencing errors
ASSAY_ENDPOINT: polyreactivity (PSR sort gate)

{"columns": ["SEQUENCE_RECORD", "ASSAY_ENDPOINT", "RESULT"],
 "data": [
  ["QVQLVESGGRLVQAGGRLRLSCDASGYIISSYVMGWYRQAHGKDKELVAAINRRGGSTYYADSVKGRFTISRDNAKNTVYLQMNSLKPEDTAVYYCAADGLSGYGSGGYYGMGYWGQGTQVTVSS", "polyreactivity (PSR sort gate)", "high polyreactivity"],
  ["QVQLVESGGGLVQAGRSLRLSCAASGFTFLVYAMGWYRQAPGTERELVAAMSNGGSTNYADSVKGRFTITRDTAKNTVYLHMNSLKPEDTAVYYCAADDPRDHWYTAMDYWGQGTQVTVSS", "polyreactivity (PSR sort gate)", "low polyreactivity"],
  ["QVQLVESGGGLVQAGGSLRLSCAASGSTFKWYGMGWYRQAPGKERELVATINYSSSTTYYADSVKGRFTISRDNAKNTVYLQMNSLKPEDTAVYYCAKGVYWGTKSTYDYWGQGTQVTVSS", "polyreactivity (PSR sort gate)", "high polyreactivity"],
  ["QVQLVESGGGLVQAGGSLRLSCAASGIISPFYAMGWYRPAPGNERELVADISTGGTTTYADSVKGRFTISRDNAKNTVYLKMNSLKPEDTAVYYCNAEVSLTYYWIVWASYDYWGQGTQVTVSS", "polyreactivity (PSR sort gate)", "low polyreactivity"],
  ["QVQLVESGGGLVQAGGSLRLTCAASGSIFPDNAMAWYRQAPGNERELVAAITSSGGSTYYADSVKGRLRISRDNAKNTVYLQMNSLKPADSAVYYCAKGRSYSVAKRRLYKYWGQGTEVTVSS", "polyreactivity (PSR sort gate)", "high polyreactivity"]
]}

----------
Experiment: yeast display, Sf9 membrane polyspecificity reagent, FACS + sequencing; frameworks hold sequencing errors

{"columns": ["SEQUENCE_RECORD", "polyreactivity (PSR sort gate)"],
 "data": [
  ["QVQLVESGGGLVQAGGSLRLSCSASGSTFRQYAMGWYRQAPGKERELVAAITWRGDNTYYADSVKGRFTISRDNAKNTVYLQMNSLKPEDTADYYCGARWSYRLYWGYGYWGQGTQVTVSS", "low polyreactivity"],
  ["QVQLVESGGGLVQAGGSLRLSCAASGFIFNTMGWYRQAPGKERELVATMSWSDGSTYYADSVKGRFTISRDNAKNTVYLQMNSLKPEDTAVYYCAATTDALVGRPRYDYWGQGTQVTVSS", "low polyreactivity"],
  ["QVQLVESGGGLVQAGGSLRLSCAASGIIFYGYVMGWYRQAPGKERELVAAISKSGGSTYYADSVKGRFTISRDNAKNTVYLQMNSLKPEETAVYYCAAERKSFYRYNYWGQGTQVTVSS", "high polyreactivity"],
  ["QVQLVESGGGLVQAGGSLRLSCAASGSTFGWNTMGWYRQAPGKERELVAAISWSGDRTYYADSVKGRFTISRDNAKNTVYLQMNSLKPDDTAVYYCARQRYYGYYYWGQGTQVTVSS", "high polyreactivity"],
  ["QVQLVESGGGLVQAGASLRLSCAASVSIFDTNAMGWYRQAPGKERELVASISSGGGSTYYADSVKGRFTISRDNAKNTVYLQMNSLKPEDTAVYFCARRIGHGSRPYWLETWRYAYDYWGQGSQVTVSS", "low polyreactivity"]
]}

----------
Assay: yeast display, Sf9 membrane polyspecificity reagent, FACS + sequencing; frameworks hold sequencing errors
ASSAY_ENDPOINT: polyreactivity (PSR sort gate)

{"columns": ["SEQUENCE_RECORD", "RESULT"],
 "data": [
  ["QVQLVESGGCLVQAGGSLRLSCAASGSIFRYYAMGWYRQAPGKDRELVAAISWSSGRTYYADSVKGRFTISRDNAKNTVYLQMNSLKPEDTAVYYCAAGVPGYPRYEYDYWGQGTQVTVSS", "high polyreactivity"],
  ["QVQLVESGGGLVQAGGSLRLSCAASGRTFSGYPMGWYRPAPGKERELVAAISWSGGSTYYADSVKGRFTISRDNAKNTVYLQMNSLKPEDTAVYYCAAYTYSFRANHDYWGQGTQVTVSS", "high polyreactivity"],
  ["QFQLVESGGGLVQAGGSLRLSCAASGRTLYGYAMGLYRQAPGKERELVAAISGSGTITYYADSVKGRFTISRDNAKNTVYLQMNSLKPEDTAVYYCNKRRAGQSRRVDSWGQGTQVTVSS", "high polyreactivity"],
  ["QVQLVESGGGLVQAGGSLRLSCAASGRTFWNYSMGWYRQAPGKERELVAVIRFSDGSTYYADSVKGRFTISRDNAKNTVYLQMNSLKPEDTAVYYCAADYSLYGWWFRNDYWGQGTQVTVSS", "low polyreactivity"],
  ["QVQLVESGGGLVQAGGSLRLSCAASGIIFAWNVRGWYRQAPGKERELVAAITQSGGGTYYADSVKGRFTISRDNAKNTVYLLMYSLKPEDTGFYYCAAVGYQFYRYVWVDEFDSWGQGTQVTVSS", "low polyreactivity"]
]}
